Values compiled from patent US10633407B2.

System: E. faecalis Vancomycin-resistant
Experiment: CLSI broth dilution MIC determination
Format: cell-based
Settings: Enterococcus faecalis, E. faecalis Vancomycin-resistant (UNT-039); read-out: MIC
# MIC per entry

>  <compound>
CC[C@H]1OC(=O)[C@H](C)C(=O)[C@H](C)[C@@H](O[C@@H]2OC(C)CC(N(C)C)C2O)[C@](C)(OC)C[C@@H](C)C(=O)[C@H](C)[C@H]2N(CC#CCn3cc(-c4cccc(N)n4)nn3)C(=O)O[C@]12C (stereo partly shown)

>  <unit spec>
µg/mL

>  <op>
=

>  <MIC>
4

$$$$
>  <compound>
CC[C@H]1OC(=O)[C@H](C)C(=O)[C@H](C)[C@@H](O[C@@H]2OC(C)CC(N(C)C)C2O)[C@](C)(OC)C[C@@H](C)C(=O)C[C@H]2N(CCCCn3cc(-c4cccc(N)c4)nn3)C(=O)O[C@]12C (stereo partly shown)

>  <unit spec>
µg/mL

>  <op>
>

>  <MIC>
32

$$$$
>  <compound>
CC[C@H]1OC(=O)[C@@](C)(F)C(=O)[C@H](C)[C@@H](O[C@@H]2OC(C)CC(N(C)C)C2O)[C@](C)(OC)C[C@@H](C)C(=O)[C@H](C)[C@H]2N(CC#CCn3cc(-c4cccc(N)n4)nn3)C(=O)O[C@]12C (stereo partly shown)

>  <unit spec>
µg/mL

>  <op>
=

>  <MIC>
1

$$$$
>  <compound>
CC[C@H]1OC(=O)[C@@H](C)C(=O)[C@H](C)[C@@H](O[C@@H]2OC(C)CC(N(C)C)C2O)[C@](C)(OC)C[C@@H](C)C(=O)[C@H](C)[C@H]2N(C/C=C/Cn3cc(-c4cccc(N)c4)nn3)C(=O)O[C@]12C (stereo partly shown)

>  <unit spec>
µg/mL

>  <op>
>

>  <MIC>
32

$$$$
